EC50 reference
Assayed System: hMC1-R (Homo sapiens (Human))
Sequence (Q01726 whole entry): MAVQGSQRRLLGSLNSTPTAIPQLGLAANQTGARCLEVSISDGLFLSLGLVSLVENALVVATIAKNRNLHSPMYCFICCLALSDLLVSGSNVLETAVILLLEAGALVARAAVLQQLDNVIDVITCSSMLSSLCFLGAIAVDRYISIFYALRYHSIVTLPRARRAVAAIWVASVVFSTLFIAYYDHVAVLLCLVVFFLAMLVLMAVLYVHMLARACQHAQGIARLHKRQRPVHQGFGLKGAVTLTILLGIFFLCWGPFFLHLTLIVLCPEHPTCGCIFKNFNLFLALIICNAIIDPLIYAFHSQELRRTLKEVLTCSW
Test Method Notes: Functional assay (EC50 and intrinsic activity) at hMC1-R
Assay type: cell-based
Number only, in nM; omit the unit.

CC(=O)N[C@@H](CCCNC(=N)N)C(=O)N[C@H]1CCNC(=O)CCC[C@@H](C(N)=O)NC(=O)[C@H](Cc2c[nH]c3ccccc23)NC(=O)[C@H](CCCNC(=N)N)NC(=O)[C@@H](Cc2ccccc2)NC(=O)[C@H](CCC(N)=O)NC1=O [compound 159]; 26
CC(=O)N[C@@H](CCCNC(=N)N)C(=O)N[C@H]1CCCNC(=O)CC[C@@H](C(N)=O)NC(=O)[C@H](Cc2c[nH]c3ccccc23)NC(=O)[C@H](CCCNC(=N)N)NC(=O)[C@@H](Cc2ccccc2)NC(=O)[C@H](CC(N)=O)NC1=O [compound 154]; 25

Below: the item to evaluate.
Entry CC(=O)N[C@H](CCCNC(=N)N)C(=O)N[C@H]1CCCNC(=O)CC[C@@H](C(N)=O)NC(=O)[C@H](Cc2c[nH]c3ccccc23)NC(=O)[C@H](CCCNC(=N)N)NC(=O)[C@@H](Cc2ccccc2)NC(=O)[C@H](CC(N)=O)NC1=O [compound 156] , hMC1-R (Homo sapiens (Human)) data, EC50 value: 80
